Test system: SK-MEL-5 melanoma
assay.summary: NCI tumour cell line growth inhibition, 48 h
Please go through the items and note down their log10 of TGI.
The base-10 logarithm of TGI, taken with TGI in µM, is what appears here.

Consider the following illustrative entries.
O=C(CCc1ccccc1)CC1OC(=O)C(Cl)=C1Cl (stereo not drawn) :: 1.67
N#Cc1c(N)nc(N2CCOCC2)c(C#N)c1-c1c(Cl)cccc1Cl :: 1.32
CN(C)CCC[N+]1=Nc2cccc3cccc(c23)N1 :: 1.53
COC(=O)c1c2c(cc3c1CC1(Cc4ccccc4C1)C3)CCC2 :: 1.50
CC1(C)C(=O)/C=C\C(=O)C(C)(C)C(=O)/C=C\C(=O)C(C)(C)C2=CC=C(O2)C(C)(C)C(=O)/C=C\C1=O :: 1.33
COc1ccc(Nc2nc(N)c(C(=O)c3ccc(Cl)cc3)s2)cc1 :: 0.34

Could you tell me log10 of TGI for each of these compounds? They are listed below.
1. Cn1c(I)c(C#C[Si](C)(C)C)c(=O)[nH]c1=O
2. CC(C)(C)[Si](C)(C)OC1[C@@H](COC(=O)NC(=O)CCl)O[C@@H](n2cnc3c(N)ncnc32)[C@H]1O[Si](C)(C)C(C)(C)C (stereo partly drawn)

1. 1.49
2. 0.70

====

Please go through the items and note down their TGI.
Test system: NCI/ADR-RES ovarian
assay.summary: NCI tumour cell line growth inhibition, 48 h

C(=N\Nc1ccc2ccccc2n1)/c1ccccn1 :: 10.6 µM

Could you tell me TGI for each of these molecules? They are listed below.
1. CCOC(=O)NN(C(=O)OCC)C(C(=O)c1ccccc1)N(NC(=O)OCC)C(=O)OCC
2. CN1C(=O)C23CCCC2CC1(c1ccccc1)S3 (stereo not given)
3. O=C(O)c1nn(-c2ccccc2)nc1-c1nn(-c2ccccc2)nc1C(=O)O

> 100 µM
> 100 µM
> 100 µM

Lookup: TGI / NCI/ADR-RES ovarian / COc1cc2c[n+](C)c3c4cc(OC)c(OCc5ccccc5)cc4c(OCc4ccccc4)cc3c2cc1OC
> 100 µM

====

Test system: M14 melanoma
assay.summary: NCI tumour cell line growth inhibition, 48 h
Please go through the items and note down their TGI.
Numbers only, in µM.

COc1ccc(/C=C/c2ccnc3ccccc23)cc1OC :: 34.9

Could you tell me TGI for each of these compounds? They are listed below.
1. CC12O[C@H](C[C@@H](OC(=O)CCC(=O)O)[C@H]1O)n1c3ccccc3c3c4c(c5c6ccccc6n2c5c31)C(=O)NC4=O
2. CC1=C[C@@H]2c3c(c(O)c(O)c4oc5cc(O)cc(O)c5c(=O)c34)[C@@H](c3cc(O)c(O)c4oc5cc(O)cc(O)c5c(=O)c34)[C@@H]2C(C)(C)C1

1. 6.54
2. 12.8

Could you tell me TGI for each of these compounds? They are listed below.
1. O=C(Oc1c(Cl)cc(Cl)cc1Cl)c1ccccc1Nc1ccnc(C(F)(F)F)c1
2. COC(=O)c1c(O)ccc2c1c1c(n2Cc2cccc(C)c2)C(=O)c2ccccc2C1
3. Fc1ccc(C(OCCN2CCC3CCC(C2)N3C/C=C/c2cccs2)c2ccc(F)cc2)cc1 (stereo not drawn)
4. Clc1ccc(-c2nc(NCc3ccco3)c3ccccc3n2)c(Cl)c1
5. CC1(C)C(=O)/C=C\C(=O)C(C)(C)C(=O)/C=C\C(=O)C(C)(C)C2=CC=C(O2)C(C)(C)C(=O)/C=C\C1=O
6. Cc1ccc(S(=O)(=O)C2CC2(Cl)Cl)cc1 (stereo not drawn)
7. Cc1c(C(N)=O)sc2nc(C)n(/N=c3\scc(-c4ccccc4)n3Cc3ccccc3)c(=O)c12

[4.99, 47.1, 14.8, 36.1, 5.63, 29.2, 84.5]

Could you tell me TGI for each of these compounds? They are listed below.
1. Fc1ccc(Nc2nc(Nc3ccc(-c4nc5ccccc5[nH]4)cc3)c3cn[nH]c3n2)cc1
2. CCc1c(C)c2cc(-n3c(-c4ccc(OC)cc4)csc3=N)c(O)c(C)c2oc1=O
3. O=C1c2cccnc2-c2nccc3c2c1nc1ccccc13
4. O=C1/C(=C/c2ccc(C(F)(F)F)cc2)COc2ccc(O)c(O)c21

3.95
6.59
0.269
4.04

====

Tested on: SF-268 CNS
assay.summary: NCI tumour cell line growth inhibition, 48 h
measurement.name: GI50

Consider the following illustrative entries.
COc1ccc2c(c1)C(=O)c1c-2n(CCCN(C)C)c(=O)c2cc([N+](=O)[O-])ccc12 :: < 10 nM
CC/C=C\C[C@H]1C/C=C2/C(=O)C(Cl)=C[C@@H]2C/C=C\CCCC(=O)O1 :: 496 nM
COc1ccc(-c2[nH]ncc2Nc2cc(OC)c(OC)c(OC)c2)cc1 :: 6830 nM
CCOCCOCCOCCOCCOCCOCCOCCOCCOCCO (tested in a mixture with another compound) :: 1610 nM
Cc1ccc(-c2nc3sc(C)cn3c2/C=C2\C(=O)Nc3ccc(Cl)cc32)cc1 :: 17800 nM
COc1ccc2c3/c(=C\c4ccc(N(C)C)cc4)c4ccccc4n3[n+](C)c2c1 :: 437 nM
CCOC(=O)/C=C1/SC(=Nc2ccc(C#N)cc2)N(Cc2ccco2)C1=O :: 3380 nM
COc1cnccc1Nc1nc(-c2nn(Cc3c(F)cc(OCCO)cc3F)c3ccccc23)ncc1OC :: 3850 nM

Consider now this further compound.
Need GI50 of CCCCCCCCN=C(NCCCCCCCC)SCc1cccc2ccccc12 , thanks.
1830 nM

====

Please go through the items and note down their log10(TGI).
System: OVCAR-4 ovarian
assay.summary: NCI tumour cell line growth inhibition, 48 h
The base-10 logarithm of TGI, taken with TGI in µM, is what appears here.

Consider the following illustrative entries.
CC(=O)Nc1ccc(/C=c2\sc3nnc(-c4cccnc4)n3c2=O)cc1 :: 1.49
COc1ccc2c3/c(=C\c4ccc(N(C)C)cc4)c4ccccc4n3[n+](C)c2c1 :: 0.81
CCN(C(=O)N[C@H](C(=O)N[C@@H](CSC)C(=O)N[C@@H](C)C(=O)OC)C(C)C)c1ccccc1 :: 1.68
Fc1ccc(C(OCCN2CCC3CCC(C2)N3C/C=C/c2cccs2)c2ccc(F)cc2)cc1 (stereo not drawn) :: 1.35
CC(=O)c1c(C)c2cnc(Nc3ccc(N4CCNCC4)cn3)nc2n(C2CCCC2)c1=O :: 1.38

Consider now this further molecule.
Lookup: log10(TGI) / OVCAR-4 ovarian / O=C1/C(=C/c2ccc(C(F)(F)F)cc2)COc2ccc(O)c(O)c21
0.43

====

Please go through the items and note down their TGI.
Tested on: UO-31 renal
assay.summary: NCI tumour cell line growth inhibition, 48 h

NC(=S)N1N=C2c3ccccc3CCC[C@H]2[C@@H]1c1ccccc1 :: 15.8 µM
CC#CCCCC1(C)CCNC1=S (stereo not given) :: > 10 µM
N#CC1=C(N)OC2=C(CCOc3c2ccc2ccccc32)C1c1ccc(Br)cc1 (stereo not given) :: > 100 µM
COc1ccc(-c2cc(-c3ccc(Nc4ccnc5cc(Cl)ccc45)cc3)[nH]c(=O)c2C#N)cc1 :: > 100 µM

Need TGI of O=C1[C@@H]2C(c3ccccc3[N+](=O)[O-])=NO[C@@H]2C(=O)N1c1ccc(Cc2ccc(N3C(=O)[C@H]4C(c5ccccc5[N+](=O)[O-])=NO[C@H]4C3=O)cc2)cc1 , thanks.
> 100 µM

====

Tested on: U251 CNS
Respond with a class label; see yes = active, no = inactive

C(=N\Nc1ccc2ccccc2n1)/c1ccccn1 :: yes
O=C1C(=C([O-])c2ccccc2)C(=O)c2ccccc21.O=C1C(=C([O-])c2ccccc2)C(=O)c2ccccc21.[Ni+2] :: no

Fill in: this test's call for O=C(CI)Nc1ccc(Br)cc1 is ___
no

====

Please go through the items and note down their TGI.
Test system: NCI-H23 lung
assay.summary: NCI tumour cell line growth inhibition, 48 h

COc1ccc2c(c1)/c(=C/C#N)c1c3ccccc3[n+](C)n21 :: 45.4 µM

Could you tell me TGI for each of these compounds? They are listed below.
1. CC(=O)Nc1ccc(/C=c2\sc3nnc(-c4cccnc4)n3c2=O)cc1
2. O=c1[nH]cnc2c1cnn2Cc1cnnn1COCCO
3. O=C(NC1C/C(=N/O)c2c(Br)sc(Br)c21)C(F)(F)F (configuration not stated)
4. COc1ccc2cc1Oc1ccc(cc1)C[C@@H]1c3cc(c(OC)cc3CCN1C)Oc1c(OC)c(OC)cc3c1[C@H](C2)N(C)CC3
5. Cc1ccc(S(=O)(=O)C2CC2(Cl)Cl)cc1 (configuration not stated)

1: 31.4 µM; 2: > 100 µM; 3: > 100 µM; 4: 34.1 µM; 5: 62.5 µM

Could you tell me TGI for each of these compounds? They are listed below.
1. CCN1C(=O)N(CC)C2C1N=C(SC)N2/N=C/C=C/c1ccccc1OC (configuration not stated)
2. CC[C@]12C=CCN3CC[C@@]4(c5cc(Br)c(OC)cc5N(C)[C@H]4[C@@](O)(C(=O)NC(Cc4c[nH]c5ccccc45)C(=O)OC)[C@@H]1O)[C@@H]32 (some centres not stated)

> 38.8 µM
> 100 µM
